Tested on: Rattus norvegicus
conditionDescription: developmental; duration: 10 days; oral; gavage; Sprague-Dawley
recordedEndpoint: NOAEL (mg/kg-day)
Output spec: scalar in mg/kg-day, unitless text.

In [3]: df
Out[3]:
                                   compound       testedtarget  unitsofmeasure  numericvalue
0  O=P(OC(CCl)CCl)(OC(CCl)CCl)OC(CCl)CCl [Tris(1,3-dichloro-2-propyl) phosphate]  Rattus norvegicus       mg/kg-day           100

Pending compound:
Consider the compound C=C1C2CCC(C2)C1(C)C (stereo not given) and give its measured NOAEL.
1000

---

The reader will find reported LD50 values listed item by item below.
Tested on: Oryctolagus sp.
conditionDescription: acute; dermal; occlusive; New Zealand

Here are 3 compounds together with their reported answers.
>>> print(df.to_string())
                                   compound  recordedendpoint        result
0  O=C(OCC1CCC2OC2C1)C1CCC2OC2C1 (stereo unspecified) [ECC]              LD50    > 20 mg/kg
1  CC(C)CC(C)Nc1ccc(Nc2ccccc2)cc1 (stereo unspecified) [6PPD]              LD50  > 7940 mg/kg
2  O=C1c2ccccc2C(=O)N1SC1CCCCC1 [N-(Cyclohexylthio)phthalimide]              LD50  > 5010 mg/kg

API: value(readout= LD50, system= Oryctolagus sp., query= CC(C)CC(C)(O)C#CC(C)(O)CC(C)C (stereo unspecified) [2,4,7,9-Tetramethyl-5-decyne-4,7-diol] )
> 1000 mg/kg

Same read-out for O=C(Nc1ccc(Cl)cc1)Nc1ccc(Cl)c(Cl)c1 [Triclocarban] ?
> 10000 mg/kg

Next compound: CC(C)C(C)(N)C#N (stereo unspecified) [2-Amino-2,3-dimethylbutanenitrile]
23 mg/kg

Entry COc1c(Cl)ccc(Cl)c1C(=O)[O-].[Na+] [Sodium dicamba] please
> 400 mg/kg

Another: ON=C1CCCCC1 [Cyclohexanone oxime]
> 5000 mg/kg

Follow-up entry: [S-]c1nc2ccccc2s1.[S-]c1nc2ccccc2s1.[Zn+2] [Zinc 2-mercaptobenzothiazolate]
> 7940 mg/kg

What about [Na+].[S-]c1nc2ccccc2s1 [Sodium 2-mercaptobenzothiolate] ?
> 7940 mg/kg

Next: CCCCCCCCCCCCN(C)C [N,N-Dimethyldodecan-1-amine]
5000 mg/kg

Try the compound CCCCCCCCCCCCOC(=O)CS(=O)(=O)[O-].[Na+] [Sodium 2-(dodecyloxy)-2-oxoethane-1-sulphonate]
> 2000 mg/kg
